Cited source for all entries: ChEMBL document CHEMBL1149485

Listed here: items and their measured pEC50.
- measured_target: P2Y purinoceptor 6 (Homo sapiens, UniProt Q15077)
- Sequence (Q15077 whole entry): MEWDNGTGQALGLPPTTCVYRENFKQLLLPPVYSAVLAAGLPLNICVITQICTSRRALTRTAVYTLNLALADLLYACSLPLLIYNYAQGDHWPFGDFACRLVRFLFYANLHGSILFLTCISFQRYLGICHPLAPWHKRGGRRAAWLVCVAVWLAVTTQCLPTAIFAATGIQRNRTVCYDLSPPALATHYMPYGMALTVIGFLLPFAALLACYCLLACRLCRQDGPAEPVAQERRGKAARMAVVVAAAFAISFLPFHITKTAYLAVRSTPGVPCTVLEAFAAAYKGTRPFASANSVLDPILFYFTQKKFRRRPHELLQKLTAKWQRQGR
- protocol_notes: Agonist activity at human recombinant P2Y6 receptor expressed in 1321N1 cells assessed as PLC-mediated [3H]IP production
Lab note — pEC50 values are minus log10 of concentrations in M.

Examples with their reported pEC50 follow.
>>> measured("NC(=O)CSc1ccn([C@@H]2O[C@H](COP(=O)(O)OP(=O)(O)O)[C@@H](O)[C@H]2O)c(=O)n1")
4.74
>>> measured("Cn1c(=O)ccn([C@@H]2O[C@H](COP(=O)(O)OP(=O)(O)O)[C@@H](O)[C@H]2O)c1=O")
5.48
>>> measured("O=C(O)CCSc1ccn([C@@H]2O[C@H](COP(=O)(O)OP(=O)(O)O)[C@@H](O)[C@H]2O)c(=O)n1")
5.96
>>> measured("[N-]=[N+]=N[C@@H]1[C@H](O)[C@@H](COP(=O)(O)OP(=O)(O)O)O[C@H]1n1ccc(=O)[nH]c1=O")
5.82
>>> measured("CCCCCCSc1ccn([C@@H]2O[C@H](COP(=O)(O)OP(=O)(O)O)[C@@H](O)[C@H]2O)c(=O)n1")
5.31

Entry O=C(O)CSc1ccn([C@@H]2O[C@H](COP(=O)(O)OP(=O)(O)O)[C@@H](O)[C@H]2O)c(=O)n1 , tested on P2Y purinoceptor 6 (Homo sapiens, UniProt Q15077), has a reported pEC50 of 5.77

Entry N[C@@H]1[C@H](O)[C@@H](COP(=O)(O)OP(=O)(O)O)O[C@H]1n1ccc(=O)[nH]c1=O , tested on P2Y purinoceptor 6 (Homo sapiens, UniProt Q15077), has a reported pEC50 of 5.41

Entry Nc1ncnc2c1ncn2[C@@H]1O[C@H](COP(=O)(O)OP(=O)(O)O)[C@@H](O)[C@H]1O [ADENOSINE DIPHOSPHATE] , tested on P2Y purinoceptor 6 (Homo sapiens, UniProt Q15077), has a reported pEC50 of 4.19

* * *

- measured_target: P2Y purinoceptor 6 (Homo sapiens, UniProt Q15077)
- protocol_notes: Agonist activity at human recombinant P2Y6 receptor expressed in 1321N1 cells assessed as PLC-mediated [3H]IP production
Criterion: EC50 strictly less than 2000 nM. Met: y. Not met: n.

Worked examples, 8 molecules total:
>>> classification("O=c1ccn([C@@H]2O[C@H](COP(=O)(O)OP(=O)(O)O)[C@@H](O)[C@@H]2F)c(=O)[nH]1")
"n"
>>> classification("O=c1[nH]c(=S)ccn1[C@@H]1O[C@H](COP(=O)(O)OP(=O)(O)O)[C@@H](O)[C@H]1O")
"y"
>>> classification("O=c1[nH]c(=O)n([C@@H]2O[C@H](COP(=O)(O)OP(=O)(O)O)[C@@H](O)[C@H]2O)cc1I")
"y"
>>> classification("Nc1ccn([C@@H]2O[C@H](COP(=O)(O)OP(=O)(O)O)[C@@H](O)[C@H]2O)c(=O)n1")
"n"
>>> classification("CSc1ccn([C@@H]2O[C@H](COP(=O)(O)OP(=O)(O)O)[C@@H](O)[C@H]2O)c(=O)n1")
"n"
>>> classification("O=c1ccn([C@@H]2O[C@H](COP(=O)(O)OP(=O)(O)O)C[C@H]2O)c(=O)[nH]1")
"n"
>>> classification("O=c1nc(SCc2ccccc2)ccn1[C@@H]1O[C@H](COP(=O)(O)OP(=O)(O)O)[C@@H](O)[C@H]1O")
"y"
>>> classification("C=CCSc1ccn([C@@H]2O[C@H](COP(=O)(O)OP(=O)(O)O)[C@@H](O)[C@H]2O)c(=O)n1")
"y"

Data request: Could you please tell me whether EC50 recorded for CCSc1ccn([C@@H]2O[C@H](COP(=O)(O)OP(=O)(O)O)[C@@H](O)[C@H]2O)c(=O)n1 is less than 2000 nM?
Data returned: y

* * *

- measured_target: P2Y purinoceptor 6 (Homo sapiens)
- protocol_notes: Agonist activity at human recombinant P2Y6 receptor expressed in 1321N1 cells assessed as PLC-mediated [3H]IP production relative to UDP
- Assay type: functional, cell-based
value_kind: Ratio EC50
Reply briefly: the number, and no unit.

Examples with their reported Ratio EC50 follow.
>>> measured("[N-]=[N+]=N[C@@H]1[C@H](O)[C@@H](COP(=O)(O)OP(=O)(O)O)O[C@H]1n1ccc(=O)[nH]c1=O")
120
>>> measured("O=c1ccn([C@@H]2O[C@H](COP(=O)(O)OP(=O)(O)O)[C@@H](O)[C@@H]2F)c(=O)[nH]1")
420

Here is the next item to consider.
Cn1c(=O)ccn([C@@H]2O[C@H](COP(=O)(O)OP(=O)(O)O)[C@@H](O)[C@H]2O)c1=O has a reported Ratio EC50 of 250

* * *

- measured_target: P2Y purinoceptor 6 (Homo sapiens, UniProt Q15077)
- protocol_notes: Agonist activity at human recombinant P2Y6 receptor expressed in 1321N1 cells assessed as PLC-mediated [3H]IP production relative to UDP
- Format: functional, cell-based
value_kind: Ratio EC50

Examples with their reported Ratio EC50 follow.
>>> measured("Nc1ccn([C@@H]2O[C@H](COP(=O)(O)OP(=O)(O)O)[C@@H](O)[C@H]2O)c(=O)n1")
1000
>>> measured("O=c1[nH]c(=S)ccn1[C@@H]1O[C@H](COP(=O)(O)OP(=O)(O)O)[C@@H](O)[C@H]1O")
6
>>> measured("O=c1ccn([C@@H]2C3C[C@@]3(COP(=O)(O)OP(=O)(O)O)[C@@H](O)[C@H]2O)c(=O)[nH]1 (stereo partly drawn)")
"> 7000"
>>> measured("Nc1nc2c(ncn2[C@@H]2O[C@H](COP(=O)(O)OP(=O)(O)O)[C@@H](O)[C@H]2O)c(=O)[nH]1")
500
>>> measured("O=c1ccn([C@@H]2O[C@H](COP(=O)(O)OP(=O)(O)O)[C@@H](O)[C@H]2O)c(=S)[nH]1")
4

N[C@@H]1[C@H](O)[C@@H](COP(=O)(O)OP(=O)(O)O)O[C@H]1n1ccc(=O)[nH]c1=O has a reported Ratio EC50 of 300

O=c1[nH]c(=O)n([C@@H]2O[C@H](COP(=O)(O)OP(=O)(O)O)[C@@H](O)[C@H]2O)cc1I has a reported Ratio EC50 of 1.1

O=c1ccn([C@@H]2O[C@H](COP(=O)(O)OP(=O)(O)O)C[C@H]2O)c(=O)[nH]1 has a reported Ratio EC50 of 190

* * *

- measured_target: P2Y purinoceptor 4 (Homo sapiens, UniProt P51582)
- Sequence (P51582 whole entry): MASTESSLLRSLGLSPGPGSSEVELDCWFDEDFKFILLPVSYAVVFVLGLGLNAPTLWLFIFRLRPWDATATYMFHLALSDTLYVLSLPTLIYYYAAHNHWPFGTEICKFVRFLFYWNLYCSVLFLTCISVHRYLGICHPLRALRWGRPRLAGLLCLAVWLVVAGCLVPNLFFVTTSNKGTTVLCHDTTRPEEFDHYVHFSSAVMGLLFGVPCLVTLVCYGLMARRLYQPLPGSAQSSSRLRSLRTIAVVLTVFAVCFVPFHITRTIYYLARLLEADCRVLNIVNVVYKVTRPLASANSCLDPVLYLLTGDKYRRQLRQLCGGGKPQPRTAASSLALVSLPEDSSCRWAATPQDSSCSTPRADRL
- protocol_notes: Agonist activity at human recombinant P2Y4 receptor expressed in 1321N1 cells assessed as PLC-mediated [3H]IP production
value_kind: EC50

Entry O=c1ccn([C@@H]2O[C@H](COP(=O)(O)OP(=O)(O)O)C[C@H]2O)c(=O)[nH]1 , tested on P2Y purinoceptor 4 (Homo sapiens, UniProt P51582), has a reported EC50 of 3.1 µM

* * *

- measured_target: P2Y purinoceptor 2 (Homo sapiens, UniProt P41231)
- Sequence (P41231 whole entry): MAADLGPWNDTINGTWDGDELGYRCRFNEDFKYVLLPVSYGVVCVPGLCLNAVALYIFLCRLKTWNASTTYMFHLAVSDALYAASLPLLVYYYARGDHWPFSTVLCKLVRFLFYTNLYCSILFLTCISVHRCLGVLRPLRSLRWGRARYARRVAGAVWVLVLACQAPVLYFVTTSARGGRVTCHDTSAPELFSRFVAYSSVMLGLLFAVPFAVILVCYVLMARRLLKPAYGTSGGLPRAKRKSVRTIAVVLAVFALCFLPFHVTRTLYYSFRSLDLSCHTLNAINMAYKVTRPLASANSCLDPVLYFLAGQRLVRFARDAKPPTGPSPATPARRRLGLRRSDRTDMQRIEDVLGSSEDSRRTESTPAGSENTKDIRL
- protocol_notes: Agonist activity at human recombinant P2Y2 receptor expressed in 1321N1 cells assessed as PLC-mediated [3H]IP production
value_kind: pEC50
Lab note — pEC50 values are minus log10 of concentrations in M.

O=c1ccn([C@@H]2O[C@H](COP(=O)(O)OP(=O)(O)O)C[C@H]2O)c(=O)[nH]1 has a reported pEC50 of 6.09

* * *

- measured_target: P2Y purinoceptor 2 (Homo sapiens)
- protocol_notes: Agonist activity at human recombinant P2Y2 receptor expressed in 1321N1 cells assessed as PLC-mediated [3H]IP production relative to UTP
- Format: functional, cell-based
value_kind: Ratio EC50

Examples with their reported Ratio EC50 follow.
>>> measured("[N-]=[N+]=N[C@@H]1[C@H](O)[C@@H](COP(=O)(O)OP(=O)(O)O)O[C@H]1n1ccc(=O)[nH]c1=O")
100
>>> measured("N[C@@H]1[C@H](O)[C@@H](COP(=O)(O)OP(=O)(O)O)O[C@H]1n1ccc(=O)[nH]c1=O")
1.3
>>> measured("Cn1c(=O)ccn([C@@H]2O[C@H](COP(=O)(O)OP(=O)(O)O)[C@@H](O)[C@H]2O)c1=O")
24
>>> measured("O=c1ccn([C@@H]2O[C@H](COP(=O)(O)OP(=O)(O)O)C[C@H]2O)c(=O)[nH]1")
17
>>> measured("O=c1[nH]c(=O)n([C@@H]2O[C@H](COP(=O)(O)OP(=O)(O)O)[C@@H](O)[C@H]2O)cc1I")
17

Nc1ncnc2c1ncn2[C@@H]1O[C@H](COP(=O)(O)OP(=O)(O)O)[C@@H](O)[C@H]1O [ADENOSINE DIPHOSPHATE] has a reported Ratio EC50 of 1.7

O=c1ccn([C@@H]2O[C@H](COP(=O)(O)OP(=O)(O)O)[C@@H](O)[C@@H]2F)c(=O)[nH]1 has a reported Ratio EC50 of 11

O=c1ccn([C@@H]2O[C@H](COP(=O)(O)OP(=O)(O)O)[C@@H](O)[C@H]2O)c(=S)[nH]1 has a reported Ratio EC50 of 0.71
